Value source: PubChem BioAssay (NCI)

- System: OVCAR-8 ovarian
- assay overview: NCI tumour cell line growth inhibition, 48 h
property: TGI (µM)
Give just the numeric value; µM need not be written.

[
  {
    "molecule": "Cc1ccc(-c2n[nH]c(=O)c3noc(-c4ccc(C)cc4)c23)cc1",
    "TGI (µM)": 27.7
  },
  {
    "molecule": "Oc1ccc(Cl)cc1/C=N\\NC(=S)N/N=C/c1cc(Cl)ccc1O",
    "TGI (µM)": 17.7
  },
  {
    "molecule": "Nc1cc2c3c(cccc3c1)C(=O)N(c1ccc(OCCN3CCCC3)cc1)C2=O",
    "TGI (µM)": 35.8
  }
]

Measured TGI, C=CC(C)(O)CC/C=C(\CO)C(=O)OC1C(C)OC(O[C@](C)(C=C)CC/C=C(\CO)C(=O)O[C@H]2C[C@@]3(C(=O)OC4OC(CO)C(O)C(O)C4OC4OC(C)C(OC5OC(CO)C(O)C5O)C(OC5OC(CO)C(O)C(O)C5O)C4O)C(CC2(C)C)C2=CCC4[C@@]5(C)CC[C@H](OC6OC(COC7OC(C)C(O)C(O)C7OC7OCC(O)C(O)C7O)C(O)C(O)C6NC(C)=O)C(C)(C)C5CC[C@@]4(C)[C@]2(C)C[C@H]3O)C(O)C1O (some centres not stated) : 6.45

###

Parameter: GI50. Scope: all listed entries.
- Tested on: BT-549 breast
- assay overview: NCI tumour cell line growth inhibition, 48 h
Where a SMILES comes first, the peptide text is derived from it. The star is where a group is joined. Trt = c1ccc(C(c2ccccc2)(c2ccccc2)*)cc1; Cbz = O=C(OCc1ccccc1)*

[
  {
    "molecule": "C=C(C)[C@@H]1CC[C@]2(CO)CC[C@]3(C)[C@H](CC[C@@H]4[C@@]5(C)CC[C@H](NCO)C(C)(C)[C@@H]5CC[C@]43C)[C@@H]12",
    "property": "GI50",
    "result": "792 nM"
  },
  {
    "molecule": "COc1ccc(-c2nc(C(=O)c3ccccc3)n(CC(=O)c3ccc(Cl)cc3)c2-c2ccc(OC)cc2)cc1",
    "property": "GI50",
    "result": "85600 nM"
  },
  {
    "molecule": "COC(=O)C(CSC(c1ccccc1)(c1ccccc1)c1ccccc1)NC(=O)C(CC(N)=O)NC(=O)OCc1ccccc1 (stereo not drawn) (Cbz-Asn-Cys(Trt)-OMe; configuration not given here)",
    "property": "GI50",
    "result": "14800 nM"
  },
  {
    "molecule": "NC(=O)c1ccc(N(C(N)=O)c2c(F)cccc2F)nc1-c1ccc(F)cc1F",
    "property": "GI50",
    "result": "> 100000 nM"
  },
  {
    "molecule": "COc1cccc(NC2=C(Cl)C(=O)N(Cc3ccc(Cl)cc3)C2=O)c1",
    "property": "GI50",
    "result": "655 nM"
  },
  {
    "molecule": "Cc1ccc(-c2n[nH]c(=O)c3noc(-c4ccc(C)cc4)c23)cc1",
    "property": "GI50",
    "result": "1330 nM"
  }
]

Measured GI50, COc1ccc(C2=NC(c3ccc(Cl)cc3)C(c3ccc(Cl)cc3)N2C(=O)N2CCNC(=O)C2)c(OC(C)C)c1 (configuration not stated) : 2030 nM

Measured GI50, "O=C(CCCCCCCCC(=O)N/N=C\c1cc(Cl)ccc1O)N/N=C\c1cc(Cl)ccc1O" : 526 nM

Measured GI50, "Cn1cc(C2=C(c3cn(CCCCC(=N)N)c4ccccc34)C(=O)NC2=O)c2ccccc21" : > 25000 nM

Measured GI50, "O=C(Nc1cccc(C(F)(F)F)c1)c1cc2ccccc2cc1O" : 1270 nM

Measured GI50, "O=C(/C=C/c1ccco1)c1ccc(Nc2nc(Nc3ccc(F)cc3)nc(Nc3ccc(F)cc3)n2)cc1" : 4900 nM
